- System: C57BL/6 mice with UUO surgical ligation
- protocol: Example 2: UUO mice, kidney weight evaluation
- Format: in vivo
- appliedConditions: ligated kidney drained, group mean; UUO, female C57BL/6 mice, PO QD days 1-14; mg/kg: Telmisartan 3, Bemithyl 200, Repirinast 30, Telmisartan+Bemithyl 3+200, Telmisartan+Repirinast 3+30, Cenicriviroc 40, Bromantane 40
Exercise: state measured Drained Left Kidney for each of the compounds provided.
The response must be a number in g with no trailing unit.

Provide value of Drained Left Kidney for this record tested with C57BL/6 mice with UUO surgical ligation: Cc1ccc2c([nH]c(=O)c3c(=O)cc(C(=O)OCCC(C)C)oc32)c1C [Repirinast] 0.1808

Note, next up: `CCCCOCCOc1ccc(-c2ccc3c(c2)/C=C(/C(=O)Nc2ccc([S@@+]([O-])Cc4cncn4CCC)cc2)CCCN3CC(C)C)cc1` 0.1683

Now this one: `CCSc1nc2ccccc2[nH]1` 0.1565

Likewise for Brc1ccc(NC2C3CC4CC(C3)CC2C4)cc1 (stereo not shown) ? 0.1775

Source listed as patent US12280026B2.
